# System: P388 leukemia ip, CD2F1 mice, survival T/C
# Protocol Summary: NCI In Vivo Anticancer Drug Screen. Data for tumor model P388 Leukemia (intraperitoneal) in CD2F1 (CDF1) mice
# Cond: endpoint: median survival time; dose: 400.0 mg/kg/injection; schedule: Q01DX009 (ip); vehicle: Klucel (hydroxypropylcellulose) (HPC); higher = longer survival
# Method: The antitumor activity of compounds was measured in mice bearing transplantable tumors. Survival or tumor size were measured and the results are expressed as the measurement made in the treated group (T) divided by the measurement made in the vehicle treated control group (C). The tumor model used in this assay is P388 Leukemia (intraperitoneal) in CD2F1 (CDF1) mice
Toxic doses and inconclusive results are not listed.
Reported Endpoint: T/C

CCOC(=O)c1ccc(NC(C)=O)cc1	112 % of control
NC1=NN(O)C2=CC(F)C=CC2=N1 (centres undefined)	105 % of control
O=c1[nH]cccc1O	98 % of control

# input for lookup
Prompt line: Using the record for C/C=C/C(=O)OC(C)CCC(CC)CCCC (centres undefined) , report its T/C.
Response line: 91 % of control

---

# Tested on: P388 leukemia ip, CD2F1 mice, survival T/C
# Protocol Summary: NCI In Vivo Anticancer Drug Screen. Data for tumor model P388 Leukemia (intraperitoneal) in CD2F1 (CDF1) mice
# Cond: endpoint: median survival time; dose: 400.0 mg/kg/injection; schedule: Q04DX003 (ip); vehicle: saline; higher = longer survival
Toxic doses and inconclusive results are not listed.
Reported Endpoint: T/C

Before answering, review these 3 worked examples.
C=CCN1CCCC1=O	95 % of control
OCC1OC(c2ccc(O)cc2O)C(O)C1O (stereo not given)	95 % of control
Cn1nnc(C(=O)O)n1	100 % of control

Prompt line: Using the record for `CCCCCCCCCCCCS(=O)(=O)CCC(=O)c1ccco1` , report its T/C.
Response line: 97 % of control

Prompt line: Using the record for COC1=CC2C3Cc4c(-c5cc(OC)c(O)c6c5CC5C7C=C(OC)C(=O)CC67CCN5C)cc(OC)c(O)c4C2(CCN3C)CC1=O (stereo not given) , report its T/C.
Response line: 96 % of control

Prompt line: Using the record for `O=C(O)CCCOc1ccc(Cl)cc1Cl` , report its T/C.
Response line: 100 % of control

Prompt line: Using the record for `C[C@]12CCC[C@H](O)[C@H]1O2` , report its T/C.
Response line: 102 % of control

Prompt line: Using the record for CCCCCCCNN=NCC(C)C(C)CC (stereo not given) , report its T/C.
Response line: 97 % of control

Prompt line: Using the record for COc1ccc(C2NC(c3ccc(OC)cc3)C3CCCC2C3O)cc1 (stereo not given) , report its T/C.
Response line: 94 % of control

Prompt line: Using the record for `CS(=O)(=O)Oc1ccc2c(c1)CCC2` , report its T/C.
Response line: 102 % of control

---

Catalogue of T/C readings, one per entry.
# System: P388 leukemia ip, CD2F1 mice, survival T/C
# Protocol Summary: NCI In Vivo Anticancer Drug Screen. Data for tumor model P388 Leukemia (intraperitoneal) in CD2F1 (CDF1) mice
# Cond: endpoint: median survival time; dose: 400.0 mg/kg/injection; schedule: Q01DX001 (ip); vehicle: saline; higher = longer survival
# Experimental: The antitumor activity of compounds was measured in mice bearing transplantable tumors. Survival or tumor size were measured and the results are expressed as the measurement made in the treated group (T) divided by the measurement made in the vehicle treated control group (C). The tumor model used in this assay is P388 Leukemia (intraperitoneal) in CD2F1 (CDF1) mice
Toxic doses and inconclusive results are not listed.

Before answering, review these 4 worked examples.
NC(=S)c1cccc(/C=N/Nc2ccc([N+](=O)[O-])cc2[N+](=O)[O-])c1	96 % of control
CCOC(=O)N1NC(=O)CC1(C)C	90 % of control
C=C1CC2(CC(C)CCC2C(C)C)OC1=O (stereo not given)	111 % of control
CN=C(N)N	101 % of control

Prompt line: Using the record for N#CC1C(=O)NN=C1c1cc2ccccc2oc1=O (stereo not given) , report its T/C.
Response line: 97 % of control

---

# System: P388 leukemia ip, CD2F1 mice, survival T/C
# Protocol Summary: NCI In Vivo Anticancer Drug Screen. Data for tumor model P388 Leukemia (intraperitoneal) in CD2F1 (CDF1) mice
# Cond: endpoint: median survival time; dose: 50.0 mg/kg/injection; schedule: Q01DX005 (ip); vehicle: saline; higher = longer survival
Toxic doses and inconclusive results are not listed.
Reported Endpoint: T/C

Before answering, review these 3 worked examples.
CC(NC(=O)CN(C)C(=O)OCc1ccccc1)C(=O)O (stereo not drawn)	102 % of control
CC(C)C(=O)C(O)C(C)C (stereo not drawn)	92 % of control
Cc1ncc(COP(=O)(O)O)c(C2NC(C(=O)O)CS2)c1O (stereo not drawn)	115 % of control

Prompt line: Using the record for CCCCn1[nH]nc(C(=O)OC)c1=O (tested in a mixture with another compound) , report its T/C.
Response line: 105 % of control

Prompt line: Using the record for CN(C)C(CCC(=O)O)C(=O)O (stereo not drawn) , report its T/C.
Response line: 102 % of control

Prompt line: Using the record for `CC(=NCc1ccccc1)NO` , report its T/C.
Response line: 97 % of control

Prompt line: Using the record for CN1C2CCC1C(CO)C(O)C2 (stereo not drawn) , report its T/C.
Response line: 98 % of control

Prompt line: Using the record for `Cc1ccc(C(=O)Cc2nc3nnc(N)n3nc2CC(=O)c2ccc(C)cc2)cc1` , report its T/C.
Response line: 97 % of control

Prompt line: Using the record for `CSCCCNCc1ccc([N+](=O)[O-])cc1` , report its T/C.
Response line: 97 % of control

Prompt line: Using the record for CCC(C)(F)C(N)C(=O)O (stereo not drawn) , report its T/C.
Response line: 100 % of control

Prompt line: Using the record for `CC(=O)N1CCC(/C(C)=N/O)CC1` , report its T/C.
Response line: 107 % of control

Prompt line: Using the record for COCCCOC(=O)NCCCCC(N)C(=O)O (stereo not drawn) , report its T/C.
Response line: 98 % of control

Prompt line: Using the record for `SC1(S)CCCN(Cc2ccccc2)C1` , report its T/C.
Response line: 108 % of control

---

# System: P388 leukemia ip, CD2F1 mice, survival T/C
# Protocol Summary: NCI In Vivo Anticancer Drug Screen. Data for tumor model P388 Leukemia (intraperitoneal) in CD2F1 (CDF1) mice
# Cond: endpoint: median survival time; dose: 100.0 mg/kg/injection; schedule: Q01DX001 (ip); vehicle: saline with Tween-80; higher = longer survival
Toxic doses and inconclusive results are not listed.
Reported Endpoint: T/C

Before answering, review these 5 worked examples.
C[Si](Cn1ccc(=O)[nH]c1=O)(c1ccccc1)c1ccccc1	109 % of control
CN1CCC2(CC1)N=C1CCN(C)CC1S2 (centres undefined)	102 % of control
CC1C(=O)C=C(c2ccccc2)C1(O)c1ccccc1 (centres undefined)	104 % of control
Cc1ccc(S(=O)(=O)N(C)C)cc1NC1=NCCO1	95 % of control
O=C(NCC1OC(n2cnc3c(=O)[nH]cnc32)C(O)C1O)c1ccc(S(=O)(=O)F)cc1 (centres undefined)	96 % of control

Prompt line: Using the record for `COCN(Cc1ccccc1)C[Si](C)(C)C` , report its T/C.
Response line: 106 % of control

Prompt line: Using the record for `COC(=O)Cn1/c(=N\N=C\c2ccc(C)cc2)sc2ccccc21` , report its T/C.
Response line: 91 % of control

Prompt line: Using the record for C=CC[S+]1CCCCC1C=C (centres undefined) , report its T/C.
Response line: 94 % of control

Prompt line: Using the record for `COc1ccc(/C(=C/c2c(C(=O)O)oc3ccccc23)c2ccccc2)cc1` , report its T/C.
Response line: 97 % of control

---

# Tested on: P388 leukemia ip, CD2F1 mice, survival T/C
# Protocol Summary: NCI In Vivo Anticancer Drug Screen. Data for tumor model P388 Leukemia (intraperitoneal) in CD2F1 (CDF1) mice
# Cond: endpoint: median survival time; dose: 100.0 mg/kg/injection; schedule: Q01DX009 (ip); vehicle: saline with Tween-80; higher = longer survival
Inconclusive results and toxic doses are left out. Peptide text beside a SMILES is read from it. * marks the point of attachment. Propionyl = CCC(=O)*; Bn = c1ccc(C*)cc1
Catalogue of T/C readings, one per entry.

Before answering, review these 8 worked examples.
O=C1OCC23CC(=O)C(O)(c4oc(CO)cc(=O)c4O)C(CC12)O3 (stereo unspecified)	100 % of control
CC(c1ccccc1)C1NC(=O)NC1=O (stereo unspecified)	106 % of control
CC(=O)C1CC2C=CC1N(C1=CC(=O)CC(C)(C)C1)C2=O (stereo unspecified)	107 % of control
CCC(=O)NC(CSCc1ccccc1)C(=O)NC(CCC(=O)OC)C(=O)OC (stereo unspecified) (Propionyl-Cys(Bn)-Glu(OMe)-OMe; configuration not given here)	100 % of control
CC(/C=N/N=C(N)N)=N/N=C(N)N	86 % of control
Cc1ncn2c(C)nnc2c1C	100 % of control
CCCCCCCCCSc1ccc(C(=O)O)cc1	109 % of control
CN1N=Cc2sc(Br)c(Br)c2B1O	101 % of control

Prompt line: Hello, I am looking for reported T/C with P388 leukemia ip, CD2F1 mice, survival T/C for O=C1C(c2ccccc2)=C(c2ccccc2)C2(c3ccccc3)Oc3c(Cl)c(Cl)c(Cl)c(Cl)c3OC12c1ccccc1 (stereo unspecified) . Could you help?
Response line: 93 % of control

Prompt line: Hello, I am looking for reported T/C with P388 leukemia ip, CD2F1 mice, survival T/C for `O=S(=O)(Cc1cccc(C(F)(F)F)c1)c1nc2cccnc2s1` . Could you help?
Response line: 103 % of control

Prompt line: Hello, I am looking for reported T/C with P388 leukemia ip, CD2F1 mice, survival T/C for `O=c1oc2cc(N=Cc3ccccc3Cl)ccc2c2ccccc12` . Could you help?
Response line: 114 % of control
